- Method Notes: qHTS Assay for Lipid Storage Modulators (AID 1519); note: % is set by controls: 0 for no effect and ±100 for the full control effect
- Condition Details: Drosophila S3 cells, BODIPY lipid droplet/cell ratio, laser cytometry; at 25.7 µM (top of the series); cells loaded with oleic acid
Results filed as inconclusive are left out.
Would you mind telling me the reported activity change, negative = inhibition of each entry?
Express the result in % but write the number alone.

Asked: Dear colleague, please send me the reported activity change, negative = inhibition for C[C@@]12CC(=O)[C@H]3[C@@H](CCC4=CC(=O)CC[C@]43C)[C@H]1CCC2=O when you can.
Given back: -2.03

Asked: Dear colleague, please send me the reported activity change, negative = inhibition for CC(C)C[C@H]1C(=O)N2CCC[C@@H]2[C@@]2(O)O[C@](NC(=O)[C@@H]3C=C4c5cccc6[nH]cc(c56)C[C@@H]4N(C)C3)(C(C)C)C(=O)N12 when you can.
Given back: 1.16

Asked: Dear colleague, please send me the reported activity change, negative = inhibition for CC[C@H](CO)NC(=O)[C@H]1C=C2c3cccc4[nH]cc(c34)C[C@@H]2N(C)C1 when you can.
Given back: 0.62

Asked: Dear colleague, please send me the reported activity change, negative = inhibition for CC[C@H](C)C(=O)O[C@@H]1[C@H](O)[C@@H]2[C@H](CN3C[C@@H](C)CC[C@@H]3[C@@]2(C)O)[C@@H]2C[C@@]34O[C@@]5(O)[C@@H](OC(=O)[C@](C)(O)CC)CC[C@@]3(C)[C@H]5[C@H](OC(C)=O)[C@@H](OC(C)=O)[C@H]4[C@]12O when you can.
Given back: -1.19

Asked: Dear colleague, please send me the reported activity change, negative = inhibition for COc1cc2c(cc1OC)[C@H](C)NCC2 when you can.
Given back: -2.81

Asked: Dear colleague, please send me the reported activity change, negative = inhibition for O=C(NCNC(=O)N[C@H]1C(=O)NC(=O)N1CO)N[C@H]1C(=O)NC(=O)N1CO when you can.
Given back: -1.29

Asked: Dear colleague, please send me the reported activity change, negative = inhibition for CN(C)[C@@H]1C(=O)C(C(N)=O)=C(O)[C@]2(O)C(=O)C3=C(O)c4c(O)cccc4[C@@](C)(O)[C@H]3[C@H](O)[C@@H]12 when you can.
Given back: -0.12

Asked: Dear colleague, please send me the reported activity change, negative = inhibition for CC(=O)N[C@@H]1CCSC1=O when you can.
Given back: 1.07

---

- Assayed Target: 3',5'-cyclic-AMP phosphodiesterase 4B (Homo sapiens) (UniProt Q07343)
- Sequence (Q07343 whole entry, looked up): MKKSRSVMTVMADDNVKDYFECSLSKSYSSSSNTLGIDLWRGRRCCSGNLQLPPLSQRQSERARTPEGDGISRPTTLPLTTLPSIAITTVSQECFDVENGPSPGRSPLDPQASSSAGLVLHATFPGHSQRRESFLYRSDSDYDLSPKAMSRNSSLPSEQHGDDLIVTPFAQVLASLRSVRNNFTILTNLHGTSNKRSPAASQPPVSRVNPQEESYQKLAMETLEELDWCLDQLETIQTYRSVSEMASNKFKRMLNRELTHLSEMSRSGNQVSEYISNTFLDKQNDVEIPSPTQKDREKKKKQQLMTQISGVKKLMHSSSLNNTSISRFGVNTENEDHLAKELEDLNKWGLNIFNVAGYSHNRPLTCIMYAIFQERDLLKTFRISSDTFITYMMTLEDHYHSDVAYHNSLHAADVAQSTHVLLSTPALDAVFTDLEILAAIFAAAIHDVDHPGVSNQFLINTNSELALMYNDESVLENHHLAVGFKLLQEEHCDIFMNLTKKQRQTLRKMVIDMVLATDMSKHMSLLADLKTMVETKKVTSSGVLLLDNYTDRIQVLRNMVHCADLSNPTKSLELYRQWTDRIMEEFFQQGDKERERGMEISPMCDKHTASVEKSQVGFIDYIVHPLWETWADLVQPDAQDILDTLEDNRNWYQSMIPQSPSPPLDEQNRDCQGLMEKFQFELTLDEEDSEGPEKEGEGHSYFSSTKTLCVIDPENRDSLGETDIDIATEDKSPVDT
- Method Notes: qHTS Assay for Inhibitors of PDE-IV (AID 607); note: % of control where 0% means no effect
- Condition Details: HEK293 ACTOne CNG channel cells, membrane potential fluorescence; series mostly up to 22.9 µM
Records with an inconclusive call do not appear. Activity calls are given as the source filed them. Calls follow the shape of the dose curve; as a rule, active = well fitted activation curve with a large enough effect in the main read-out, with a control signal flat (not every such curve was filed as active); inconclusive = small, poorly fitted or top-dose-only effect, or effect the other way, or a change in a side signal; inactive = flat fitted curve, though single readings scatter.
Experimental Endpoint: outcome

[[record]]
structure = "O=C(Oc1ccccc1)N1CCC[C@@]2(CCN(Cc3ccccc3)C2)C1"
assayed_target = "3',5'-cyclic-AMP phosphodiesterase 4B (Homo sapiens) (UniProt Q07343)"
observed_value = "inactive"

[[record]]
structure = "O=C(Oc1ccccc1)N1CCC[C@@]2(CCN(Cc3cc(C(F)(F)F)cc(C(F)(F)F)c3)C2)C1"
assayed_target = "3',5'-cyclic-AMP phosphodiesterase 4B (Homo sapiens) (UniProt Q07343)"
observed_value = "inactive"

[[record]]
structure = "c1ccc(CN2CCCC3(CCNCC3)C2)cc1"
assayed_target = "3',5'-cyclic-AMP phosphodiesterase 4B (Homo sapiens) (UniProt Q07343)"
observed_value = "inactive"

[[record]]
structure = "N#Cc1ccc(CN2CC[C@@]3(CCCNC3)C2)cc1"
assayed_target = "3',5'-cyclic-AMP phosphodiesterase 4B (Homo sapiens) (UniProt Q07343)"
observed_value = "inactive"


Next compound, please.
Asked: Dear colleague, please send me the reported outcome for C[C@H]1C(=O)O[C@@H]2CCN3CC=C(COC(=O)[C@@](C)(O)[C@@]1(C)O)[C@H]23 when you can.
Given back: inactive
